Here, compounds appear alongside IC50 reported for Rho-associated protein kinase 1 (Homo sapiens) in the literature.

Examples with their reported IC50 follow.
compound	IC50
O=C1c2cc(-c3ncc(F)c(Nc4ccc(-c5cn[nH]c5)cc4)n3)ccc2CN1CC1CC(F)(F)C1	> 10000 nM
O=C(N[C@H](CN1CC(F)(F)C1)c1cc(F)cc(F)c1)N1CCc2cc(-c3c[nH]nc3F)c(F)cc21	50 to 500 nM
COc1ccc(F)c(C(C)NC(=O)c2ccc(-c3cn[nH]c3)cc2OC)c1 (centres unmarked)	12.5 nM
O=C(C1CC(F)(F)C1)N1CCc2ccc(-c3nccc(Nc4ccc5[nH]ncc5c4)n3)cc2C1	> 10000 nM
N[C@H]1CCCN(S(=O)(=O)c2cccc3cncc(Cl)c23)C1	1000 to 3000 nM

O=C(NC1CCCC1)c1cccc([C@@H](CO)NC(=O)N2CCc3cc(-c4cn[nH]c4)c(F)cc32)c1 yielded IC50 of ≤ 50 nM

IC50 measured on COc1cc(C(=O)NC(CNC(=O)OC(C)(C)C)c2ccccc2)ccc1-c1cn[nH]c1 (centres unmarked) = 108 nM

Lab note: measured IC50 of O=C(NC(CO)c1cccc(F)c1)c1cccc(-c2ccc3[nH]nc(F)c3c2)c1 (centres unmarked) was 215 nM
